The following compounds are listed with their measured GI50 values.
# System: NCI-H23 lung
# assay: NCI tumour cell line growth inhibition, 48 h

Reference set (5 entries):
[[record]]
structure_smiles = "C=C(CN(CCN1CCOCC1)CC(=C)c1ccc(C(=O)Nc2ccccc2N)cc1)c1ccc(C(=O)Nc2ccccc2N)cc1"
target_entity = "NCI-H23 lung"
result = "2.49 µM"

[[record]]
structure_smiles = "O=C1C(Nc2cccc(O)c2)=C(Sc2ccc(Cl)cc2)C(=O)N1Cc1ccccc1"
target_entity = "NCI-H23 lung"
result = "6.77 µM"

[[record]]
structure_smiles = "Clc1ccc2c(NCCN3CCN(c4ccnc(N5CCCC5)n4)CC3)ccnc2c1"
target_entity = "NCI-H23 lung"
result = "6.88 µM"

[[record]]
structure_smiles = "O=C1/C(=C/c2ccc(C(F)(F)F)cc2)COc2ccc(O)cc21"
target_entity = "NCI-H23 lung"
result = "2.14 µM"

[[record]]
structure_smiles = "CCNC(=O)CCCCC(=O)c1c(C)[nH]c(/C=C2\\N=C(c3ccc[nH]3)C=C2OC)c1C"
target_entity = "NCI-H23 lung"
result = "4.5 µM"


Input line: Fill in: GI50 of "CO[C@@]12[C@H](COC(N)=O)C3=C(C(=O)C(C)=C(N)C3=O)N1C[C@@H]1N[C@@H]12" is ___
Output line: 0.77 µM

Input line: Fill in: GI50 of "Cc1[nH]ccc2cc3nc4ccccc4c3cc12" is ___
Output line: 2.55 µM

Input line: Fill in: GI50 of "CN(C)CCC(=O)NCc1c2nc3ccccc3nc2n2ccccc12" is ___
Output line: 65.6 µM

====

# Tested on: SN12C renal
# assay: NCI tumour cell line growth inhibition, 48 h; in the data active = GI50 below about 0.43 µM; inactive = the rest
Just give me one of these, please: y (active), n (inactive)

[[record]]
compound = "CO[C@@]12[C@H](COC(N)=O)C3=C(C(=O)C(C)=C(N)C3=O)N1C[C@@H]1N[C@@H]12"
category_label = "n"

[[record]]
compound = "O=C1C(Cl)=C(Nc2ccc3c(c2NC2=C(Cl)C(=O)c4ccccc4C2=O)C(=O)c2ccccc2C3=O)C(=O)c2ccccc21"
category_label = "n"


Then this compound:
Input line: In this assay, the call recorded for "CN1CCN(c2ccc([N+](=O)[O-])c3no[n+]([O-])c23)CC1" was what?
Output line: y

====

The following compounds are listed with their measured TGI values.
# System: OVCAR-4 ovarian
# assay: NCI tumour cell line growth inhibition, 48 h

Reference set (2 entries):
[[record]]
compound = "C[N+](C)(N)Cc1csc(-c2ccc(Cl)cc2)n1"
result = "> 100 µM"

[[record]]
compound = "Cn1nc2ccc3nccc(NCCNCCCl)c3c2n1"
result = "> 100 µM"


Input line: Fill in: TGI of "c1cc(-c2cnn3nc(N4CCOCC4)ccc23)nc(NC2CC2)n1" is ___
Output line: > 25 µM

Input line: Fill in: TGI of COC(=O)C1CCC(N2C(=O)CCC2C(=O)OC)=N1 (stereo unspecified) is ___
Output line: > 100 µM

Input line: Fill in: TGI of "O=C1c2c(O)cccc2C(C(=O)CCCC(=O)C2c3cccc(O)c3C(=O)c3c(O)cccc32)c2cccc(O)c21" is ___
Output line: 0.82 µM

Input line: Fill in: TGI of "N/C(=N\N=C/c1cc(Cl)cc(Cl)c1O)NO" is ___
Output line: 20.9 µM
